Attribution: the supplement of paper PMC9170038

- System: K4 kissing-loop RNA reporter;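 further: bound reporter read as fluorescence of individual clusters on recovered sequencing chips by microscopy, with normalized cluster intensities fitted with a binding model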
- Run Description: apparent KD of K4 kissing-loop reporter; higher = weaker reporter binding
- Run Conditions: Eterna round: R107; input ligand: tryptophan 2.4 mM
Observable: apparent KD of K4 kissing-loop reporter (nM)
Numbers only, in nM.

Answer for every listed entry: what is its apparent KD of K4 kissing-loop reporter? The entries follow.
1. UGUGUUUACCUGACUCAGUGAUGUUGAGAAGGAGCGUUCGAAAGAACAGGUAGGUCGCUCAACCUAAAUUCAGGUGAGCACUAAA
2. GUGUGUGAAAACACGCACUUAUAUCCUAGGCAGGAUAUGCGGAAACGCAGAAGGGCCACCGGCGAGAAAAUCCAGUGAUGUUGGA [Ex FMN A 6]
3. CGUUUAUAGCAGGAUACCAGUACCCAUUAAGUACGUUAAUAGUAGAGUGAUGUUCUAAAGUACCCUUGGCAGCUUCCCGUGACCC [ExTheophylB.X]
4. GGAUCCACCAGUGAUGUUGGAGAAAACUUCAAGGAUAUGACGAAAGUCAGAAGGUGAUAGACUGGACAAAGUCCGGUCGGAUCCA [FmnA 19 U29+A57]

Reply:
322
251
94.1
462

Answer for every listed entry: what is its apparent KD of K4 kissing-loop reporter? The entries follow.
1. UAGUCCUAGUGAUCCUUAUCAAGUGGUGGGCGAGGACCGGUACGGCCGCCACUCGACUAUGCAGUGAUGUUGUAAUCCGGACAAU [Exclusion - Tryptophan A (Freestyle 12)]
2. AGCUCAGAGUGACUCGAUAAGAGUCACAAACGAGGACCGGUACGGCCGCCACUCGAAAUAAAGAGAGUGAUGUUCUCGCUGAGCA [FiskerMod 9 - Jieux - Same State Tryptophan A]
3. AAGCAGUCACUCGAAGCCAUCGAAGAUGGUCGAGGACCGGUACGGCCGCCACUCGGAGUGAUGUUCCGAAGACUGCAAAAUAAAA [#SwitchBubble 11]
4. UGUACCGAGUCAGGAUAUGUCGUCGAAAGACGAAAUGGAGUGAUGUUCCUUAAACUGCGAAAGCAGACAGAAGGGAUUUGGUACU [FmnBS 29 U77]
5. AUACAGCGACGCGCUAGUGAUGUUAGCGAAGGAGCGACUCAUGAGUCAGGUAGGUCGCGCUAACGUGGUUACGAGAGUAACCAGU [Arg A Ex t1a]
6. AGACUACCACACUGUCAAUAGACAGUGUACUAGGAUAUGCUGAUAAGCAGAAGGAGUGAUGUUCCUAGGUAGUCAAUAAAAUAAU [FmnAX 13 U28]

Reply:
1. 541
2. 795
3. 526
4. 717
5. 89.4
6. 574

Query: Entry UGACUGGACUGAAGGAGCGCGAACUCCUAGUGAUGUUAGGAAAUACGAGACAAAGUCUCGACGCAGGUAGGUCGCAGUCUAGUCU [ArgBS 15 #SwitchBubble #StaticStem] : reported apparent KD of K4 kissing-loop reporter = ?
Reply: 98
